molecular target: KRas (Homo sapiens, UniProt P01116, G12C); experiment: KRas degradation in SW1573 cells by Western blot, normalized to GAPDH (data of Table 14); type: cell-based; settings: SW1573 cells
Sequence (P01116 1-188 isoform P01116-2 G12C): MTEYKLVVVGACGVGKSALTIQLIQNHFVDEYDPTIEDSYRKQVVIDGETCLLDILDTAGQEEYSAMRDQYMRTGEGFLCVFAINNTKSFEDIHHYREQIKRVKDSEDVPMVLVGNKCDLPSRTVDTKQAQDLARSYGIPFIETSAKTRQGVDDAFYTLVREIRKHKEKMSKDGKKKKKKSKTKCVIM
Recorded DC50 values for a group of compounds are listed next.

| STRUCTURE_SMILES | DC50 |
| --- | --- |
| C=CC(=O)N1CCN(c2nc(O[C@H](C)CN3CCC(OCCOCCOCCOCCOCC(=O)N[C@H](C(=O)N4C[C@H](O)C[C@H]4C(=O)N[C@@H](C)c4ccc(-c5scnc5C)cc4)C(C)(C)C)CC3)nc3c(F)c(-c4cc(O)cc5ccccc45)c(Cl)cc23)CC1 | ≥ 1 µM |

// next entry
Asked: Tell me its DC50 given "C=CC(=O)N1CCN(c2nc(O[C@H](C)CN(C)CCOCCOCCOCCOCC(=O)N[C@H](C(=O)N3C[C@H](O)C[C@H]3C(=O)N[C@@H](C)c3ccc(-c4scnc4C)cc3)C(C)(C)C)nc3c(F)c(-c4cc(O)cc5ccccc45)c(Cl)cc23)CC1" as the entry.
Given back: 0.1 to 1 µM

// provenance: patent US12552783B2
